- System: MILI (PIWIL2) piRISC loaded with piRNA #2 (26 nt);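 further: 1 nM active piRISC with 0.1 nM target library at 33 °C single turnover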
- ASSAY_DETAILS: pre-steady-state target cleavage rate (min^-1); higher = faster piRNA-guided slicing of the target
- SETTINGS: guide: piRNA #2 5'p-UUAGGUAACCCAGUAGAUCCAGAGGA; auxiliary factor: 500 nM mouse GTSF1
In all, about 3,000 sequences were measured (“pre-steady-state target cleavage rate”: median about 0.0079, highest 2% from about 0.2 on). Many of the other results were omitted from the sample, so the highest values are more common in it than they were.
Catalogue of sequences with associated pre-steady-state target cleavage rate
In your answer, state the number alone without any accompanying words.

Answered cases to consult:
CUUAUCCUCUGGUCUACUGGGUUACCUAA; 0.983
CUUAUCCUCUGGAUCUACUGGGGUUACCUAA; 0.0435
CUUAAGCUCUCGAUCUACUGGGUUACCUAA; 0.113
CUUAACCUCUGCAUGUACUGGGUUACCUAA; 0.117
CUUAUCCUCUGGAUCUUCUGGGUUACCUAA; 0.105
CUUAAGCUCAGGAUCUACUGGGUUUCCUAA; 0.0265
CUUAAGGUCUGGAUCUACAGGGUUAGCUAA; 0.0446
CUUAAGCACUGGUUCUACUGGGUUACCUAA; 0.199

**Q:** Report pre-steady-state target cleavage rate, nothing else, for this sequence: CUUAUCGUCUCGAUCUACUGGGUUACCUAA
**A:** 0.0585

**Q:** Output pre-steady-state target cleavage rate of CUUAUCCUCUGGUAUCUACUGGGUUACCUAA
**A:** 1.05

**Q:** Quickly give me recorded pre-steady-state target cleavage rate for CUUAAGCUCUCCUUCUACUGGGUUACCUAA
**A:** 0.0472

---

- Test system: MILI (PIWIL2) piRISC loaded with piRNA #2 (26 nt);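 further: 1 nM active piRISC with 0.1 nM target library at 33 °C single turnover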
- ASSAY_DETAILS: pre-steady-state target cleavage rate (min^-1); higher = faster piRNA-guided slicing of the target
- SETTINGS: guide: piRNA #2 5'p-UUAGGUAACCCAGUAGAUCCAGAGGA; auxiliary factor: 500 nM mouse GTSF1
The full ranking holds about 3,000 sequences; the median of “pre-steady-state target cleavage rate” is about 0.0079, and the highest 2% start at about 0.2. The list comes from a sample in which the highest values are over-represented; it also holds close analogues and randomly drawn sequences.
MEASURED_ENDPOINT: pre-steady-state target cleavage rate

CUUAUCCUCUGGCAUCUACUGGGUUACCUAA; 2.56
CUUAACCUCAGCAUCUACUGGGUUACCUAA; 0.111

**Q:** // fetch pre-steady-state target cleavage rate for CUUAUCCUCUGCGAUCUACUGGGUUACCUAA ; system: MILI (PIWIL2) piRISC loaded with piRNA #2 (26 nt);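 further: 1 nM active piRISC with 0.1 nM target library at 33 °C single turnover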
**A:** 0.0876

**Q:** Look up and report pre-steady-state target cleavage rate, with MILI (PIWIL2) piRISC loaded with piRNA #2 (26 nt) as system, for CUUAAGGAGACCUACUACUGUGGUUACCUAA;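 further: 1 nM active piRISC with 0.1 nM target library at 33 °C single turnover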
**A:** < 0.0001

**Q:** Provide pre-steady-state target cleavage rate, system MILI (PIWIL2) piRISC loaded with piRNA #2 (26 nt), entry CUUAUCCUCUGGAUGUACUGGGUAACCUAA;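 further: 1 nM active piRISC with 0.1 nM target library at 33 °C single turnover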
**A:** 0.0198

**Q:** Write pre-steady-state target cleavage rate of CUUAUCCUCUGGAUCAACAGGGUUACCUAA ; system used: MILI (PIWIL2) piRISC loaded with piRNA #2 (26 nt);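 further: 1 nM active piRISC with 0.1 nM target library at 33 °C single turnover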
**A:** 0.0724

**Q:** Give pre-steady-state target cleavage rate; test system MILI (PIWIL2) piRISC loaded with piRNA #2 (26 nt); sequence CUUAACCUCUGGACUACUGGGUUACCUAA;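 further: 1 nM active piRISC with 0.1 nM target library at 33 °C single turnover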
**A:** 0.156

---

- Tested on: MILI (PIWIL2) piRISC loaded with piRNA #2 (26 nt);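 further: 1 nM active piRISC with 0.1 nM target library at 33 °C single turnover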
- ASSAY_DETAILS: pre-steady-state target cleavage rate (min^-1); higher = faster piRNA-guided slicing of the target
- SETTINGS: guide: piRNA #2 5'p-UUAGGUAACCCAGUAGAUCCAGAGGA; auxiliary factor: 500 nM mouse GTSF1
Over roughly 3,000 sequences, “pre-steady-state target cleavage rate” has its median near 0.0079; the highest 2% begin near 0.2. The entries come from a sample that favours the highest values as a whole.
condition met means recorded pre-steady-state target cleavage rate is 0.1 or above; condition not met means it is below 0.1.

Solved entries:
CUUAAGGAGUGGAUCUACUGGGUCUACCUAA; condition not met
CUUAAGCUCUGGUAUCUACUGGGUUACCUAA; condition met
CUUAUCCUCUGGAUCUAUGGGUUACCUAA; condition not met
CUUAACCUCUGCAUCUACAGGGUUACCUAA; condition not met
CUUAUCCUCUGGUUGUACUGGGUUACCUAA; condition met
CUUAUCCUCUGGUUCUACUGGGUAACCUAA; condition met

**Q:** Is the recorded value of pre-steady-state target cleavage rate equal to or greater than 0.1 for this sequence? CUUAACCUCUGGUUCUACUGGGUAACCUAA
**A:** condition met

**Q:** Determine whether measured pre-steady-state target cleavage rate meets or exceeds 0.1 for CUUAACCUCUGGAUCUACUGGGUUAGCUAA
**A:** condition met

**Q:** # check: pre-steady-state target cleavage rate of CUUAUCCUCUGGAUCAACUGGGUUACCUAA is greater than or equal to 0.1
**A:** condition not met

**Q:** Hi team, for CUUAACCUCUGGAUCUACUGGGUUUGCUAA , is the recorded pre-steady-state target cleavage rate at or above 0.1?
**A:** condition met

**Q:** Please check the record CUUAAGGUCUGGAUCUACUGGGUUACCUUAA and state if its pre-steady-state target cleavage rate is at or above 0.1.
**A:** condition not met

---

- System: MILI (PIWIL2) piRISC loaded with piRNA #2 (26 nt);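 further: 1 nM active piRISC with 0.1 nM target library at 33 °C single turnover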
- ASSAY_DETAILS: pre-steady-state target cleavage rate (min^-1); higher = faster piRNA-guided slicing of the target
- SETTINGS: guide: piRNA #2 5'p-UUAGGUAACCCAGUAGAUCCAGAGGA; auxiliary factor: 500 nM mouse GTSF1
Whole data set: some 3,000 sequences, median “pre-steady-state target cleavage rate” near 0.0079, cut for the highest 2% near 0.2. The full list was thinned out, with the highest values kept by preference.
Kind request: treat 0.1 as inclusive, so pre-steady-state target cleavage rate at 0.1 or higher is Criterion met, anything lower is Criterion not met.

Take a look at these entries with their results.
CUUAACCUUGGAUCUACUGGGUUACCUAA; Criterion met
CUUAACCUCUGCAUCUACUGGGUUUCCUAA; Criterion met
CUUAAGCUCUGGCUCUACUGGGUUACCUAA; Criterion met
CUUAAGGAGUGGAUCUACUGGGUUACCGUAA; Criterion not met
CUUAACCUCUGGAUUCUACUGGGUUACCUAA; Criterion met

**Q:** Please indicate if the recorded pre-steady-state target cleavage rate for CUUAAGCUCUGCAUCUACUGGGUUACCUAA meets or exceeds 0.1.
**A:** Criterion not met

**Q:** Tell me whether pre-steady-state target cleavage rate is at least 0.1 here: CUUAACCUCUCGAUCUACUGGGUAACCUAA
**A:** Criterion not met

**Q:** API: above_or_equal(metric=pre-steady-state target cleavage rate, cutoff=0.1) for item CUUAAGCUCUGGCAUCUACUGGGUUACCUAA
**A:** Criterion met

**Q:** Check if pre-steady-state target cleavage rate >= 0.1 (inclusive). Item: CUUAACCUCUCGAUCUACUGGGUUUCCUAA
**A:** Criterion met

**Q:** Given the entry CUUAACCUCUGGAUCUUCUGGGUAACCUAA , answer whether its pre-steady-state target cleavage rate meets or surpasses 0.1.
**A:** Criterion not met

**Q:** Is pre-steady-state target cleavage rate for CUUAACCUCUGGAUCUUCUGGGUUACCUAA at or above 0.1?
**A:** Criterion not met

---

- Tested on: MILI (PIWIL2) piRISC loaded with piRNA #2 (26 nt);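 further: 1 nM active piRISC with 0.1 nM target library at 33 °C single turnover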
- ASSAY_DETAILS: pre-steady-state target cleavage rate (min^-1); MIWI and MILI are mouse PIWI proteins and EfPiwi is from a freshwater sponge; tags in brackets are library labels; higher = faster piRNA-guided slicing of the target;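 further: 1 nM active piRISC with 0.1 nM target library at 33 °C single turnover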
- SETTINGS: guide: piRNA #2 5'p-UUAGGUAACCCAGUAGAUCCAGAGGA; auxiliary factor: 500 nM mouse GTSF1
Whole data set: some 3,000 sequences, median “pre-steady-state target cleavage rate” near 0.0079, cut for the highest 2% near 0.2. The full list was thinned out, with the highest values kept by preference.
Label satisfied when pre-steady-state target cleavage rate is at or above 0.04; otherwise label not satisfied.

Example results:
CUUAAGGAGAGGAUCUACAGGGUUACCUUA; not satisfied
CUUAUCCACUGGAUCUACUGGGUUUCCUAA; satisfied
CUUAAGCUCUGGAUCUACUGGGCUUACCUAA; not satisfied

**Q:** Does the sequence CUUAACCUCUGGAACUACUGGGUUACGUAA have recorded pre-steady-state target cleavage rate that is 0.04 or more?
**A:** satisfied

**Q:** Does CUUAAGGUCUGGAUCUAGUGGGUUACGUAA have a reported pre-steady-state target cleavage rate of at least 0.04?
**A:** not satisfied

**Q:** # bool: pre-steady-state target cleavage rate of CUUAUCCUCUCGAUCUACUGGGAUACCUAA >= 0.04
**A:** satisfied

**Q:** Could you please find out whether CUUAAGCUCAGGAUCAACUGGGUUACCUAA has pre-steady-state target cleavage rate that meets 0.04 or exceeds it?
**A:** satisfied
